Some compounds, each annotated with its measured melting point.

Use these answered entries as a reference point.
For the compound CCNC(=O)[C@H]1O[C@@H](n2cnc3c(NC(=O)Nc4ccccc4S(=O)(=O)N4CC=CC4)ncnc32)C(O)C1O (stereo partly shown) , what melting point is on record? 149 to 151 °C

For the compound CCNC(=O)[C@H]1O[C@@H](n2cnc3c(NC(=O)Nc4ccccc4S(=O)(=O)Nc4ccc(OC)cc4)ncnc32)C(O)C1O (stereo partly shown) , what melting point is on record? 168 to 170 °C

For the compound CCNC(=O)[C@H]1O[C@@H](n2cnc3c(NC(=O)Nc4cccc(S(=O)(=O)N5CC=CC5)c4)ncnc32)C(O)C1O (stereo partly shown) , what melting point is on record? 145 to 146 °C

Further cases:
For the compound CCNC(=O)[C@H]1O[C@@H](n2cnc3c(NC(=O)Nc4cccc(S(=O)(=O)NC56C[C@H]7C[C@@H](C5)C[C@@H](C6)C7)c4)ncnc32)C(O)C1O (stereo partly shown) , what melting point is on record? 188 to 189 °C

For the compound CCNC(=O)[C@H]1O[C@@H](n2cnc3c(NC(=O)Nc4ccccc4S(=O)(=O)NC45C[C@H]6C[C@@H](C4)C[C@@H](C5)C6)ncnc32)C(O)C1O (stereo partly shown) , what melting point is on record? 159 to 161 °C
